- system-tested: humanized development candidate monoclonal antibody IgG4 (hIgG4)
- experiment-summary: Gyrolab, mAb as capture, hIgG4 40 ng/ml
measured-metric: Av. Resp.
Enter a number only.

rabbit anti-human IgG monoclonal antibody clone 16F5 (antibody, V domains shown) VH: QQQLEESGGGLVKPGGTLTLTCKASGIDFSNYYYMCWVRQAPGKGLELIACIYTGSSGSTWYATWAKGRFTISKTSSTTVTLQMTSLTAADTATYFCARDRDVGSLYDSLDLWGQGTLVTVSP VL: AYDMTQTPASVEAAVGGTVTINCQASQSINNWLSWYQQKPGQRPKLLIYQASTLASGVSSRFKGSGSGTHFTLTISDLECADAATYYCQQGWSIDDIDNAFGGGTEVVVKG | 64.2

Now consider the entry below.
Looking for the measured Av. Resp. of rabbit anti-human IgG monoclonal antibody clone 11F9 (antibody, V domains shown) VH: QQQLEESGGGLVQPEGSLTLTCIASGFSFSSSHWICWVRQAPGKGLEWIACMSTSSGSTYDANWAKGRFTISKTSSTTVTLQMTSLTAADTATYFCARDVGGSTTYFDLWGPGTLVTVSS VL: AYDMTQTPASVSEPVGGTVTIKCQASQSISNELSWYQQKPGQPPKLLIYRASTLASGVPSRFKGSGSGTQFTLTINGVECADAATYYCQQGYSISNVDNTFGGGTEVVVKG , can you help? 45.1
